All figures here come from patent US20200270309A1.

# half-life listing for each entry below
experimental.protocol: Half-lives and pharmacokinetic parameters of polypeptides vs HM-1; note: test concentration or dose not given here
measurement.setup: in vivo
Peptide text beside a SMILES is read from it. * marks the point of attachment. Hexanoyl(6-maleimido) = O=C1C=CC(=O)N1CCCCCC(=O)*; Propanoyl(3-maleimido) = O=C1C=CC(=O)N1CCC(=O)*
Form entry: value (h) — number only.

- molecule: "C[C@H](NC(=O)[C@H](CCCNC(=N)N)NC(=O)[C@H](CC(=O)O)NC(=O)[C@H](CCC(=O)O)NC(=O)CNC(=O)[C@H](CCCNC(=N)N)NC(=O)CCCCCN1C(=O)C=CC1=O)C(=O)NCC(=O)NCC(=O)NCC(=O)NCC(=O)N[C@@H](CCCNC(=N)N)C(=O)NCC(=O)N[C@@H](CC(=O)O)C(=O)O [P6] ({Hexanoyl(6-maleimido)}-RGEDRAGGGGRGD-OH; C-terminus assumed)"
  half-life (h): 34.4

Data point: C[C@H](NC(=O)[C@H](CCCNC(=N)N)NC(=O)[C@H](CC(=O)O)NC(=O)[C@H](CCC(=O)O)NC(=O)CNC(=O)[C@H](CCCNC(=N)N)NC(=O)CCN1C(=O)C=CC1=O)C(=O)NCC(=O)NCC(=O)NCC(=O)NCC(=O)N[C@@H](CCCNC(=N)N)C(=O)NCC(=O)N[C@@H](CC(=O)O)C(=O)O [P5] ({Propanoyl(3-maleimido)}-RGEDRAGGGGRGD-OH; C-terminus assumed) ; half-life = 36.3
